Data origin: patent US12037324B2

Consider the following compounds and their measured BRET P63 Ymax readings.
TEST TARGET: hAT1R (Homo sapiens)
Sequence (P30556 whole entry): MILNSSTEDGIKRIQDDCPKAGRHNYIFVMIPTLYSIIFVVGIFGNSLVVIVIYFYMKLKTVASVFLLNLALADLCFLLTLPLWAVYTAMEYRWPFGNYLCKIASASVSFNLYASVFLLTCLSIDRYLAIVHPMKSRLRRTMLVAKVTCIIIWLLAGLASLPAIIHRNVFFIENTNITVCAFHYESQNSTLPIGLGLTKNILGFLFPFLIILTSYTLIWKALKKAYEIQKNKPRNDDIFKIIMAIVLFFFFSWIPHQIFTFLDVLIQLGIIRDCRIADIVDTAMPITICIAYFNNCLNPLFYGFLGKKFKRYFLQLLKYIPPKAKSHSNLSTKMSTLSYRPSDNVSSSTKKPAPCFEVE
PROTOCOL DESCRIPTION: cell-based
SETTINGS: agonist mode

- COMPOUND: "CCOc1nc2cccc(C(=O)O)c2n1Cc1ccc(-c2cc(-c3ccccc3)ccc2-c2nn[nH]n2)cc1"
  MEASUREMENT KIND: "BRET P63 Ymax"
  RECORDED RESULT: "9.4%"
- COMPOUND: "CCc1nc2c(C)cc(C)nc2n1Cc1ccc(-c2cc(-c3nccs3)ccc2-c2nn[nH]n2)cc1"
  MEASUREMENT KIND: "BRET P63 Ymax"
  RECORDED RESULT: "4.0%"
- COMPOUND: "CCc1nc2c(C)cc(C)nc2n1Cc1ccc(-c2cc(-c3ccccc3O)ccc2-c2nn[nH]n2)cc1"
  MEASUREMENT KIND: "BRET P63 Ymax"
  RECORDED RESULT: "26.1%"
- COMPOUND: "CCCCc1ncc(C(=O)NCc2cnn(C)c2)n1Cc1ccc(-c2cc(-c3ccccc3)ccc2-c2nn[nH]n2)cc1"
  MEASUREMENT KIND: "BRET P63 Ymax"
  RECORDED RESULT: "6.0%"
- COMPOUND: "CCOc1nc2cccc(C(=O)O)c2n1Cc1ccc(-c2cc(-n3cc(C)cn3)ccc2-c2nn[nH]n2)cc1"
  MEASUREMENT KIND: "BRET P63 Ymax"
  RECORDED RESULT: "17.3%"
- COMPOUND: "CCC1=NC2(CCOC2)C(=O)N1Cc1ccc(-c2cc(-c3ccccc3)ccc2-c2nn[nH]n2)cc1 (single isomer, unassigned)"
  MEASUREMENT KIND: "BRET P63 Ymax"
  RECORDED RESULT: "14.1%"

From here, focus on the item given below.
# BRET P63 Ymax measured on hAT1R (Homo sapiens) for item "CCc1nc2c(C)cc(C)nc2n1Cc1ccc(-c2cc(-c3cc(OC)ccn3)ccc2-c2nn[nH]n2)cc1" = 35.7%
